Biological target: T1, Monomeric human CD48-mmH (human)
T1 chain: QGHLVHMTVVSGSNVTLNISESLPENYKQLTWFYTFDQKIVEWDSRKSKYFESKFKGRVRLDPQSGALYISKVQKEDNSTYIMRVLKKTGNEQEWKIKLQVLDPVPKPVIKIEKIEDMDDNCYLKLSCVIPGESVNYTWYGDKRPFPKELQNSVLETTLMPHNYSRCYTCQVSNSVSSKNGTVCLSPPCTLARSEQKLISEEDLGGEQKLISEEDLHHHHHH
Assay: SPR (Biacore), antibody captured by anti-Fc, CD48 in solution, 37 C
quantityKind: T½ (min)
Give bare numbers, in min.

Observe how each entry below is paired with its result.
H2M1713N (antibody, mouse IgG2, V domains shown, Human variable domains, mouse IgG2 Fc (H2M)) VH: QVQLVQSGAEVKKPGASVKVSCKASGHTFTNYYIHWVRQAPGQGLEWMGITNPNDGNTRYAQKFQGRISMTWDTSTSTVFMELSSLKSEDTAVYYCAGLRYWFFDLWGRGTPVTVSS VL: DIQMTQSPSSVSASVGDRVTITCRASQDISSWLAWYQQKPGKAPNLLIFAASSLQSGVPSRFSGSGSGTDFTLTISSLQPEDFGTYYCQQTDNFPRTFGQGTKVEIN: 18
H2M1811N (antibody, mouse IgG2, V domains shown, Human variable domains, mouse IgG2 Fc (H2M)) VH: QVQLVQSGAEAREPGASVRVSCKASGYTFTDYFIHWVRQAPGQGLEWMGWINPNSGATNFAQKFQGRVTMTRDTSLITAYMDLSRLKSDDAAVFYCARDVDGSGWYLDFWGQGTLVTVSS VL: EIVLTQSPATLSLSPGERATLSCRASQSVSIYLAWYQQKPGQAPRLLIYDASNRATGIPARFSGSGSGTDFTLTISRLEPEDFAVYYCQQRSDWPPSITFGQGTRLEIK: 4
H4H1779P (antibody, human IgG4, V domains shown, Human IgG4 Fc (H4H)) VH: QVQLVESGGGVVQPGRSLRLSCAASGFTFSNYGMHWVRQAPGKGLEWVAVIWYDESSKHYADSVKGRFTISRDNSQNTLYLQMTSLRAEDTAVYYCARDRWTYSHYFEYWGQGTLVTVSS VL: DIQMTQSPSSVSASVGDRVTITCRASQDISSWVAWYQQKPGKAPKLLIYAASSLQSGVPSRFSGSGSGTDFTLTISSLQPEDFATYYCQQANSFPRTFGQGTKVEIK: 113

Take each entry in turn and give its T½.
1. H4H1763N (antibody, V domains shown, Human IgG4 Fc (H4H)) VH: QIQLVQSGAEMKRPGTSVKVSCKASGYTFTSYGINWVRQAPGQGLEWMGWISAYNGDTNYAQKLQGRVTMTTDTSTTTAYMEVRSLRSDDTAVYYCARFLTGTKDYYYGMDVWGQGTTVTVSS VL: DIQMTQSPSSLSASVGDRVTITCQASQDISNFLNWYQQKPGKAPDLLINDASILETGVPSRFSGSGSGTDFTLTINNLQPEDIATYYCQQYDNLPLTFGGGTKVEIK
2. H4H1713N (antibody, V domains shown, Human IgG4 Fc (H4H)) VH: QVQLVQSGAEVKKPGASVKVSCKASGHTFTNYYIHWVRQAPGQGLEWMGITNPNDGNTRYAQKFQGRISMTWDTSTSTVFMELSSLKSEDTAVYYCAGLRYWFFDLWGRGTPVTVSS VL: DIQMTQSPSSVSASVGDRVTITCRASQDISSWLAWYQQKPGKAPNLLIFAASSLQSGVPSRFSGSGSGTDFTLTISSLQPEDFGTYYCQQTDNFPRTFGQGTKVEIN

Marked response:
[1, 18]
